Attribution: paper PMC5731459

System: P. falciparum Dd2 parasites
Assay: microbe, parasite or virus in culture
Format: cell-based
Conditions: Plasmodium falciparum, DD2
METRIC: pIC50
Keep in mind that pIC50 stands for -log10 of concentration in molar terms.

Qu. Data request, read-out pIC50, for "CS(=O)(=O)c1ccc(-c2cnc(N)c(-c3ccc(C(F)(F)F)nc3)c2)cc1"
Ans. 7.80
